Across several studies, compounds have been characterized by their pIC50 on Proto-oncogene tyrosine-protein kinase receptor Ret (Homo sapiens, UniProt P07949); a selection follows.
pIC50: −log10 of the molar value.

In the examples that follow, each entry is paired with its recorded pIC50.
COC1(C(=O)N[C@@H](C)c2ccc(-n3cc(F)cn3)nc2)CC=C(c2nc(Nc3cc(C)[nH]n3)c(F)cc2C#N)CC1 (some centres unmarked) = 7.76
Cn1cc(-c2cc(-c3cnc(N4C[C@@H]5C[C@@](C)(NC(=O)c6ncccc6F)C[C@@H]5C4)cn3)c3c(C#N)cnn3c2)cn1 = ≥ 8.00
O=C(c1cccc(O)c1F)c1c[nH]c2ncc(-c3ccccc3)cc12 = ≥ 5.00
O=C(O)/C=C/c1cccc(-c2ccnc3[nH]cc(C(=O)c4cc(F)ccc4F)c23)c1 = ≥ 5.00
COC1(C(=O)NCc2ccc(-n3cc(F)cn3)nc2)CCN(c2cc(C)cc(Nc3cc(C)[nH]n3)n2)CC1 = > 8.00
Cn1ccc(-c2cc(-c3ccc(N4C[C@@H]5C[C@@](C)(NC(=O)c6ncccc6C#N)C[C@@H]5C4)nc3)c3c(C#N)cnn3c2)n1 = 7.30 to 8.00
Cc1cc(Nc2cc(C)[nH]n2)nc([C@@H]2CC[C@@H](C(=O)N[C@@H](C)c3ccc(-n4cc(F)cn4)nc3)C2)n1 (single isomer, unassigned) = > 8.00
CS(=O)(=O)Nc1ccc(F)c(C(=O)c2c[nH]c3ncc(-c4cccnc4)cc23)c1 = ≥ 5.00
Cc1ccc(F)cc1C(=O)c1c[nH]c2nccc(-c3ccc(Cl)cc3)c12 = ≥ 5.00
FC(F)(F)Oc1ccc2[nH]c(-c3n[nH]c4ncc(-c5cccnc5)cc34)nc2c1 = < 4.00

Task item: Hi! What's the reported pIC50 for Cc1cnn(-c2ccc(CNC(=O)c3ccc(-c4nc(C)cc(Nc5cc(C)[nH]n5)n4)cn3)cn2)c1 on Proto-oncogene tyrosine-protein kinase receptor Ret (Homo sapiens, UniProt P07949)?
Reply: > 8.00

Task item: And the next one, CCOc1cc(-c2ccc(NC(=O)Nc3cc(-n4cnc(C)c4)cc(C(F)(F)F)c3)c(F)c2)c[nH]c1=O ?
Reply: > 7.00

Task item: Ok, now CCOc1cc(-c2ncc(NC(=O)Nc3ccc(CN(C)C)c(C(F)(F)F)c3)c(C)n2)c[nH]c1=O
Reply: > 7.00

Task item: Next compound: COCc1cccc2[nH]c(-c3n[nH]c4ncc(-c5cncc(CNCCN6CCOCC6)c5)cc34)nc12
Reply: ~4.00

* * *

pIC50: −log10 of the molar value.
Before we begin, note that these pIC50 values for Proto-oncogene tyrosine-protein kinase receptor Ret (Homo sapiens, UniProt P07949) originate from several publications.

Check out these entries, answers already filled in.
Cc1cc(Nc2cc(C)[nH]n2)nc(N2CC(C)(C(=O)NCc3ccc(-n4cc(F)cn4)nc3)C2)c1 = > 8.00
Cn1cc(-c2cc(-c3ccc(N4C[C@@H]5[C@@H](CNC(=O)c6ccnc(C(F)(F)F)c6)[C@@H]5C4)nc3)c3c(C#N)cnn3c2)cn1 = ≥ 8.00
CCOc1cc(-c2ncc(NC(=O)Nc3cc(C(C)(C)C(F)(F)F)on3)c(C)n2)c[nH]c1=O = > 7.00

Task item: What does the record list as pIC50 for CCCS(=O)(=O)Nc1ccc(F)c(C(=O)c2c[nH]c3ncc(-c4ccccc4)cc23)c1F ?
Reply: ≥ 5.00
